assay: qHTS for Inhibitors of TGF-b; settings: HepG2 CAGA-GFP TGF-b/SMAD3 reporter, GFP fluorescence, 18 h, TGF-beta stimulated, 500 pg/mL final; series mostly up to 46.1 µM; also: nearly all actives have a fitted effect of over 65% in size
About 5,000 (1.2%) of roughly 410,000 compounds were called active. Roughly 13% stayed inconclusive and do not appear here. Calls follow the shape of the dose curve; as a rule, active = well fitted inhibition curve with a large enough effect; inconclusive = small, poorly fitted or top-dose-only effect; inactive = no such curve, though single readings can be large or run the other way. Many of the other results were omitted from the sample, so actives are more common in it than they were.
Possible outcomes: 1 (yes) for active, 0 (no) for inactive

# compound, class-name
records = [
    ("CCc1nn(CCCC(=O)NCc2ccccc2OC)c(=O)c2cc3occc3n12", "0 (no)"),
    ("Cc1ccc(C(=O)Nc2ccc(C(=O)O)cc2)cc1S(=O)(=O)Nc1ccccc1", "0 (no)"),
    ("CN(C)c1ccc(/C=N\\Nc2ccc([N+](=O)[O-])cc2[N+](=O)[O-])cc1Cl", "0 (no)"),
    ("O=C(Nc1ccc(Br)cc1)c1ccc(Br)c(S(=O)(=O)NCc2ccccc2)c1", "1 (yes)"),
    ("O=C(Cn1c(NCCO)nc2ccccc21)c1ccc(Cl)cc1Cl", "0 (no)"),
]

###

assay: qHTS for Inhibitors of TGF-b; details: HepG2 CAGA-GFP TGF-b/SMAD3 reporter, GFP fluorescence, 18 h, TGF-beta stimulated, 500 pg/mL final; series mostly up to 46.1 µM; also: nearly all actives have a fitted effect of over 65% in size
Hit rate of the full screen: of about 410,000 compounds, about 5,000 (1.2%) were called active. Not shown: some 13% with an inconclusive outcome. The call rests on the fitted dose curve; in most records, active means well fitted inhibition curve with a large enough effect; inconclusive means small, poorly fitted or top-dose-only effect; inactive means no such curve, though single readings can be large or run the other way. Shown is part of a subset that was picked to be rich in actives.
Possible outcomes: YES = active, NO = inactive

# molecule, class-name
records = [
    ("CCc1nc2c(OCc3ccc(C(=O)OC)cc3)cccn2c1N(C)C(=O)C(C)C", "NO"),
    ("CCOC(=O)CNC(=O)c1cc2c(=O)n3cccc(C)c3nc2s1", "NO"),
    ("Cc1nc2c(OCC(=O)C(C)(C)C)cccn2c1N(C)Cc1cccs1", "NO"),
    ("O=[N+]([O-])c1ccccc1SNc1ccccn1", "NO"),
    ("Cc1cccc(C(=O)Nc2nnc(S(=O)(=O)N3CCCCCC3)s2)c1", "NO"),
    ("COc1ccccc1-c1ccnc2[nH]n(-c3ccccc3)c(=O)c12", "NO"),
    ("O=C(Nc1nnc(S(=O)(=O)N2CCOCC2)s1)c1cccc(Br)c1", "NO"),
    ("CCS(=O)(=O)N1CCc2cc(C(=O)NCc3ccc(C)cc3)ccc21", "NO"),
    ("COc1ccc(C(=O)COC(=O)c2ccc([N+](=O)[O-])s2)cc1OC", "NO"),
    ("O=C1CSC2(C(=O)N(Cc3ccccc3)c3ccccc32)N1c1cccc(F)c1 (configuration not stated)", "NO"),
    ("COc1ccc(C(=O)COC(=O)CCCC(=O)Nc2cc(C(F)(F)F)ccc2Cl)cc1", "NO"),
    ("CCCCNC(=O)c1ccc2c(c1)NC(=O)C(C(C)C)N2 (configuration not stated)", "NO"),
    ("O=C(Nc1cccc2cccnc12)C(F)(F)F", "NO"),
    ("CC(OC(=O)/C=C/c1ccccc1)C(=O)NC1CCCCC1C (configuration not stated)", "NO"),
    ("O=C(Nc1nnc(S(=O)(=O)N2CCCCCC2)s1)c1cccc(Br)c1", "YES"),
    ("Cc1nnc(SCc2cc(=O)c3cc(F)ccc3[nH]2)n1C", "NO"),
    ("Cc1ccc2c(=O)cc(C(=O)Nc3sc4c(c3C(=O)NCc3cccnc3)CCCC4)oc2c1", "NO"),
    ("CCc1nc2c(OCc3cccc(OC)c3)cccn2c1N(C)C(=O)C(C)C", "NO"),
    ("Cc1ccc(S(=O)(=O)c2nnn3c2nc(N2CCN(c4ccccc4F)CC2)c2cc(Cl)ccc23)cc1C", "NO"),
    ("O=S(=O)(Nc1cccc2cccnc12)c1cccc2cccnc12", "YES"),
    ("O=C(C1CC1)N1CCc2cc(Br)cc(S(=O)(=O)N3CCN(c4ccccc4F)CC3)c21", "NO"),
    ("COc1ccc(C(=O)NCC(=O)N/N=C/c2ccc([N+](=O)[O-])s2)cc1OC", "YES"),
    ("O=C(COC(=O)c1ccccc1OCCOc1ccccc1)Nc1cccc(Br)c1", "NO"),
    ("CC1CC(C)CN(CCOc2cccc3ccccc23)C1 (configuration not stated)", "NO"),
    ("CCN(CC)C(=O)C1=C(C)N(Cc2ccc(C(C)(C)C)cc2)C(=O)C(CC(=O)NCc2cccc3ccccc23)C1 (configuration not stated)", "YES"),
    ("CCN1CCN(c2nc(Nc3cccc(F)c3)nc(N)c2[N+](=O)[O-])CC1", "NO"),
    ("Cc1nnc(SCC(=O)NCc2ccccc2Cl)c2nn(-c3ccccc3)c(C)c12", "NO"),
    ("COc1ccc(CN2C(=O)C(CC(=O)NCc3cccc4ccccc34)CC(C(=O)N3CCOCC3)=C2C)cc1 (configuration not stated)", "NO"),
    ("O=C(c1ccc2c(c1)N(Cc1ccccc1F)C(=O)c1ccccc1S2(=O)=O)N1CCOCC1", "NO"),
    ("O=C(NC1CCN(Cc2ccccc2)CC1)c1ccc(Cn2c(=O)c3ccccc3n(Cc3cccc(F)c3)c2=O)cc1", "NO"),
    ("CCc1nc2c(OCc3ccc(Cl)cc3Cl)cccn2c1N(C)C(=O)C(C)C", "YES"),
    ("CNc1nc(Nc2ccc(C)c(Cl)c2)nc(N)c1[N+](=O)[O-]", "YES"),
    ("CCc1nn(CC(=O)Nc2cc(C)cc(C)c2)c(=O)c2cc3sccc3n12", "NO"),
    ("Cc1ccc(S(=O)(=O)N2CCN(CC(=O)N/N=C/c3ccc(Br)s3)CC2)cc1", "NO"),
    ("COc1ccc(-c2cn3c(C)c(C(=O)Nc4cc(C)cc(C)c4)sc3n2)cc1", "NO"),
    ("CCOc1cc(C2C(C(=O)Nc3ccc(OC)cc3)=C(C)Nc3nc(SC)nn32)ccc1O (configuration not stated)", "NO"),
    ("CC1CCCCC1NC(=O)/C(C#N)=C/C=C/c1ccccc1[N+](=O)[O-] (configuration not stated)", "YES"),
    ("COC(=O)c1cccc(Cn2nnc3sc4c(c3c2=O)CCC(C(C)(C)C)C4)c1 (configuration not stated)", "NO"),
    ("Cc1cccc(NC(=O)Cn2c(=O)n(CCC(C)C)c(=O)c3cccnc32)c1", "NO"),
    ("Cc1ccc(Cl)cc1NC(=O)CSc1nc2ccccc2nc1Cc1ccccc1", "NO"),
    ("Cc1cccc(C)c1NC(=O)CN(C)C(=O)CCC(=O)c1ccccc1", "NO"),
    ("COc1ccc(Cl)cc1S(=O)(=O)N1CCC(c2ccncc2)CC1", "NO"),
]

###

test: qHTS for Inhibitors of TGF-b; conditions: HepG2 CAGA-GFP TGF-b/SMAD3 reporter, GFP fluorescence, 18 h, TGF-beta stimulated, 500 pg/mL final; series mostly up to 46.1 µM; also: nearly all actives have a fitted effect of over 65% in size
The campaign covered roughly 410,000 compounds. About 5,000 (1.2%) were called active. About 13% were inconclusive and are not listed. The call rests on the fitted dose curve; in most records, active means well fitted inhibition curve with a large enough effect; inconclusive means small, poorly fitted or top-dose-only effect; inactive means no such curve, though single readings can be large or run the other way. The sample as a whole holds a higher share of actives than the screen did.
Possible outcomes: true for active, false for inactive

# compound, class-name
data = [
    ("COc1ccc(NC(=S)NC2CCS(=O)(=O)C2)cc1 (stereo not given)", "false"),
    ("Clc1cccc[n+]1CCCC[n+]1ccccc1Cl", "false"),
    ("Cc1ccc2nc(COc3ccc(NC(=O)COc4ccccc4F)cc3)cc(=O)n2c1", "false"),
    ("C=C1C(=O)[C@]23C[C@H]1CCC2[C@@]1(C)C(C[C@@H]3O)[C@](C)(C(=O)O)CC[C@@H]1O (stereo not given in full)", "true"),
    ("Cc1c(C(=O)N(C)C)sc2c1c(=O)n(-c1ccc(F)cc1)c(=O)n2CC(=O)N(C)c1ccccc1", "false"),
    ("Cc1ccc(C)c(N2CCN(S(=O)(=O)c3ccc4c(c3)C(C(C)C)C(=O)N4)CC2)c1 (stereo not given)", "true"),
    ("CCCCCCCNc1ccc(/C=C/c2ccnc3ccccc23)cc1", "false"),
    ("CCCCN(CC)CCCNC(=O)c1nn(C)c2c1CSc1ccccc1-2", "false"),
    ("Cc1oc2cc(Br)c(O)c(Br)c2c1C(=O)c1ccccc1", "false"),
    ("Cc1c(C(=O)Nc2ccccn2)oc2ccc(Br)cc12", "false"),
    ("O=C(NCCCN1CCN(c2cccc(Cl)c2)CC1)c1nnc(Cc2ccc(F)cc2Cl)o1", "true"),
    ("COc1ccccc1-c1cc(C(F)(F)F)nc(S(=O)(=O)CCCC(=O)Nc2ccc(F)cc2F)n1", "true"),
    ("Cc1ccc(N2CCN(S(=O)(=O)c3ccc(F)cc3)CC2)c(C)c1", "false"),
    ("COc1ccccc1-c1cc(C(F)(F)F)nc(S(=O)(=O)CCCC(=O)Nc2cc(C)ccc2O)n1", "false"),
    ("COc1ccc(CNc2nc(-c3ccccc3)nn2C(=O)c2ccccc2OC)cc1", "false"),
    ("CC(C)CNc1ncnc2c1nnn2C", "false"),
    ("COc1ccc(-c2cn3nc(N4CCC(C(=O)Nc5cccc(C)c5C)CC4)sc3n2)cc1", "false"),
    ("COc1ccc(-c2nc(C)c(CCNC(=O)c3ccc(C(F)(F)F)cc3)s2)cc1OC", "false"),
    ("CCNS(=O)(=O)c1ccc(NC(=O)CSc2nc(-c3ccco3)cc(C(F)(F)F)n2)cc1", "false"),
    ("COc1c(Cl)cc(C(=O)N(Cc2ccccc2F)C2CCS(=O)(=O)C2)cc1Cl (stereo not given)", "false"),
    ("CCOC(=O)c1c(C)oc2cc(Sc3ccccc3)c(O)c(O)c12", "true"),
    ("O=[N+]([O-])c1ccc(C=Nc2ccc(Cl)cc2Cl)s1", "true"),
    ("O=C(CCC(=O)N1CCN(S(=O)(=O)c2ccc(Cl)cc2)CC1)NCc1cccc(C(F)(F)F)c1", "true"),
    ("CC(C)c1ccc(NC(=O)c2cc(S(=O)(=O)N3CCc4ccccc4C3)ccc2F)cc1", "false"),
    ("CCNC(=O)c1cc2n(n1)CCCN(Cc1ccc(C)cc1)C2=O", "false"),
    ("O=C(CCc1ccc(O)cc1)NN=Cc1cc(Br)ccc1O", "false"),
    ("O=C1[C@H]2[C@@H](c3ccc(Cl)cc3)N3C(=O)N(c4cccc(F)c4)C(=O)[C@@]3(Cc3ccccc3)[C@H]2C(=O)N1C1CCCCC1", "false"),
    ("CC(C)C(=O)NC(NC(=S)NC1CCS(=O)(=O)C1)C(Cl)(Cl)Cl (stereo not given)", "false"),
    ("COc1ccccc1Nc1c2c(nc3ccc(NC(=O)/C=C/c4cc(OC)c(OC)c(OC)c4)cc13)CCCC2", "true"),
    ("C#CCOc1ccc(C2CC(=O)Nc3c2c(C)nn3-c2nc(C)cc(C)n2)cc1 (stereo not given)", "false"),
    ("CN1CCN(c2ccc([N+](=O)[O-])c(Sc3nc4ccccc4[nH]3)c2)CC1", "false"),
    ("COc1ccc(NS(=O)(=O)c2cc(NC(=O)/C=C/c3cc(OC)c(OC)c(OC)c3)ccc2N2CCCCC2)cc1", "false"),
    ("Cc1cccc(OCCCC(=O)Nc2sc3c(c2C(N)=O)CCC(C)C3)c1 (stereo not given)", "false"),
    ("CSc1ccccc1NC(=O)CCS(=O)(=O)c1nc(-c2cccs2)cc(C(F)(F)F)n1", "false"),
    ("CCOC(=O)c1cccc(NS(=O)(=O)c2cn(C)c(C)n2)c1", "false"),
    ("Clc1cccc(N=C2NN=C(c3ccc4c(c3)OCCO4)CS2)c1", "true"),
    ("CCC(C)N1C(=O)S/C(=C/c2ccc(Sc3nc4ccccc4[nH]3)o2)C1=O (stereo not given)", "true"),
    ("Cc1ccc(C)c(N2CCN(S(=O)(=O)c3ccc4c(c3)oc(=O)n4C)CC2)c1", "false"),
    ("COc1ccc(Nc2ncc(C(=O)Nc3cc(C)ccc3OC)c3ccccc23)cc1", "false"),
    ("Cc1nn(-c2ccc(N3CCCCC3)nn2)c(C)c1CCC(=O)NCc1ccc(F)cc1", "false"),
]
